assayedSystem: PDGFR-beta (Homo sapiens, UniProt P09619)
Construct: expressed in transfected cells; host or cells: BaF3
Sequence (P09619 33-1106, species assumed): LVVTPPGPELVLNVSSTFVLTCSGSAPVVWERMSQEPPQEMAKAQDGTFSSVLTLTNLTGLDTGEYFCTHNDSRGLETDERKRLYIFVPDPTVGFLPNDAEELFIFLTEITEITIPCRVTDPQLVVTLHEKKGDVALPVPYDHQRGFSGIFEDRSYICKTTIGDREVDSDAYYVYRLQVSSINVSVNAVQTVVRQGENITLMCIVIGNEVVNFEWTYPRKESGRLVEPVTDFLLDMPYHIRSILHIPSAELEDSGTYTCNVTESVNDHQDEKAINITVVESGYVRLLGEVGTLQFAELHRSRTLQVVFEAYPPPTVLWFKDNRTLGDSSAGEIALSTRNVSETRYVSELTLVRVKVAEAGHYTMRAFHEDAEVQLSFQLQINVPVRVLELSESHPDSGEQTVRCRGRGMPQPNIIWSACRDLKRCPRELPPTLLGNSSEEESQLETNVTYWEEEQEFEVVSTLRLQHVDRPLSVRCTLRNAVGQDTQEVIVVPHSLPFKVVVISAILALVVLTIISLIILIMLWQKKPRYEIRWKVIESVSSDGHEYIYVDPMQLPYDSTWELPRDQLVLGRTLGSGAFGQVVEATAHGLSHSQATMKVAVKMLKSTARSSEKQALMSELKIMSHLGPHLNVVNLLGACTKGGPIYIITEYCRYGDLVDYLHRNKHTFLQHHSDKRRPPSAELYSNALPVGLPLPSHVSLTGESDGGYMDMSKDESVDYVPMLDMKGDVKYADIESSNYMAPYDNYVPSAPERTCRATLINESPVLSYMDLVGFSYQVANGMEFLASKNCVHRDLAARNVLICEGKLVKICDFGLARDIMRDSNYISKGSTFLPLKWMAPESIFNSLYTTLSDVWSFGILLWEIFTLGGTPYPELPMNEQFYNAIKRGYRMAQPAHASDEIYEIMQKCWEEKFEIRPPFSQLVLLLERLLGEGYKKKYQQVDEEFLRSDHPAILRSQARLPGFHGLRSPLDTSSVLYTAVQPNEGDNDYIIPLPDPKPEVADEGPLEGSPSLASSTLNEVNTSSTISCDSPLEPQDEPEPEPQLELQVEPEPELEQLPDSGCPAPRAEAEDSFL
protocolText: IC50 for BaF3/PDGFR-beta (method not described)
Assay type: cell-based
conditionsUsed: BaF3/PDGFR-beta; read-out: IC50 for BaF3/PDGFR-beta
endpoint: IC50 (nM)
Report the value in nM with no unit label.

Q. Requested read-out: IC50. Entry: COc1cc(Nc2ncc3ccn(-c4cccc(Cc5nnnn5C)c4)c3n2)cc(OC)c1OC
A. 29

---

assayedSystem: UniProtKB P22607
Sequence (P22607 23-806, species assumed): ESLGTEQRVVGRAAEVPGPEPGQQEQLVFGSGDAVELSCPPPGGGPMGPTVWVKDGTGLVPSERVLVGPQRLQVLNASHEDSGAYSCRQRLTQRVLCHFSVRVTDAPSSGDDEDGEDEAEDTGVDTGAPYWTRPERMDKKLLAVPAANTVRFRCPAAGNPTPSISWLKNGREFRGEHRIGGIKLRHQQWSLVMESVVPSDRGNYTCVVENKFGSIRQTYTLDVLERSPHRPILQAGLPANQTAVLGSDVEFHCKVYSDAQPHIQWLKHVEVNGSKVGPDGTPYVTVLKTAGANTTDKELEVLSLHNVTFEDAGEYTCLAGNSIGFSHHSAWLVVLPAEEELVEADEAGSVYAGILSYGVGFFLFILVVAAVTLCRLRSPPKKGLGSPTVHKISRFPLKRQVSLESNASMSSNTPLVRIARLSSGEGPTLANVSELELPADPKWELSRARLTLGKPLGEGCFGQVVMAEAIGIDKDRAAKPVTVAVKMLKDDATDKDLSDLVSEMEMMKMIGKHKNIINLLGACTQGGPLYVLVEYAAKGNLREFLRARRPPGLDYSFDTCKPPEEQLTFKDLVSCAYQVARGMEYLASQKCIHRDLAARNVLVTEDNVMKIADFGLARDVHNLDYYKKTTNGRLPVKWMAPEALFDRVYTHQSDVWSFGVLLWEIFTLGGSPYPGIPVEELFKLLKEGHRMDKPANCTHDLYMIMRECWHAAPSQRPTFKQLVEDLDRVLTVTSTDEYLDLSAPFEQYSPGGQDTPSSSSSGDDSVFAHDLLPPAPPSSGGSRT
protocolText: IC50 for FGFR3 (method not described)
Below is a list of entries, each paired with its recorded IC50 value.
Report the value in nM with no unit label.

1) COc1cc(Nc2ncc3ccn(-c4cccc(CC#N)c4)c3n2)cc(OC)c1OC [example 104]
282

Now for another entry.
Q. Look up IC50 with UniProtKB P22607 for this compound: COc1cc(Nc2ncc3c(n2)N(c2ccccn2)CC3)cc(OC)c1OC [example 61]
A. 284

---

assayedSystem: JAK2 (Homo sapiens)
Sequence (O60674 whole entry, species assumed): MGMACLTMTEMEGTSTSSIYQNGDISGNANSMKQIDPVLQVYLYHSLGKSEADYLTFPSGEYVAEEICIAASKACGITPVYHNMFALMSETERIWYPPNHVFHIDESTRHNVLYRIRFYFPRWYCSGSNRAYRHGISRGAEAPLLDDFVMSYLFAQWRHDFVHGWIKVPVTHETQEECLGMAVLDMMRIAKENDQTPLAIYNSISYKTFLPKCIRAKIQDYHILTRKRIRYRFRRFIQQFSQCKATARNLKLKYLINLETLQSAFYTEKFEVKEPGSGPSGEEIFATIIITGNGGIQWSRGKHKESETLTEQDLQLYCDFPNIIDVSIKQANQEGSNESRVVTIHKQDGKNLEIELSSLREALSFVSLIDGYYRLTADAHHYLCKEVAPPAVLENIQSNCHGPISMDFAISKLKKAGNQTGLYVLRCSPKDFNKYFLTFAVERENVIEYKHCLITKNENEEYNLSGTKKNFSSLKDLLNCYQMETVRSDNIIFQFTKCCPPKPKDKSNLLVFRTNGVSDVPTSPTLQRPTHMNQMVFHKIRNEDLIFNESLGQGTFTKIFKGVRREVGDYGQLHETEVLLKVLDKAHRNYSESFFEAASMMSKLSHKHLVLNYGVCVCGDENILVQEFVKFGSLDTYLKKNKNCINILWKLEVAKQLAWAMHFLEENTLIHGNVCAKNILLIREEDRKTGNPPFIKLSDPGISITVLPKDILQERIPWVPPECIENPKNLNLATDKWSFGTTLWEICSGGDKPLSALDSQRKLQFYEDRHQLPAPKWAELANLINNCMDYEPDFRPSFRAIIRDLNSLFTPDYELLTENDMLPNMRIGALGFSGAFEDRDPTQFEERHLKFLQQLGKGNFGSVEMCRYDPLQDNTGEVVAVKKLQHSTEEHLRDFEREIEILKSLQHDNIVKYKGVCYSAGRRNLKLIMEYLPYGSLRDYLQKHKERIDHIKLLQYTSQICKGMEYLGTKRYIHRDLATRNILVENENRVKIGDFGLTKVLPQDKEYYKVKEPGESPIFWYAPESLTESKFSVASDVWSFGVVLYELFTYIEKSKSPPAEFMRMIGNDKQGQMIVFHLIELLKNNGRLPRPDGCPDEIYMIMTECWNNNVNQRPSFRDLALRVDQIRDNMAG
protocolText: IC50 for JAK2 (method not described)
endpoint: IC50 (nM)
Report the value in nM with no unit label.

Q. Requested read-out: IC50. Entry: COc1cc(Nc2ncc3ccn(-c4cccc(CC#N)c4)c3n2)cc(OC)c1OC
A. 342
